Test system: A498 renal
Assay: NCI tumour cell line growth inhibition, 48 h
readout_kind: TGI (µM)
Numbers only, in µM.

| item_smiles | unit_abbrev | TGI |
| --- | --- | --- |
| CN=C1SC(=Nc2ccc(N(C)C)cc2)N1C | µM | 91.9 |
| COc1ccc(Cl)cc1Nc1nc(C(F)(F)F)ccc1C(=O)N/N=C/c1cc(OC)c(OC)c(OC)c1 | µM | 7.65 |
| Cc1cc(N/N=C/c2nc(-c3ccc(Cl)cc3)oc2C)c2cc(Cl)ccc2n1 | µM | 25.1 |

Okay, now this compound:
Request: Entry COc1ccc2c(c1)/c(=C/c1ccc(N(C)C)cc1)c1cc(-c3ccccc3)[n+](C)n12 has what TGI?
Response: 2.75

* * *

Hi there, I'd appreciate the recorded TGI for every entry that follows.
Tested on: OVCAR-4 ovarian
Test: NCI tumour cell line growth inhibition, 48 h

Observe how each entry below is paired with its result.
| molecule | TGI |
| --- | --- |
| Cc1cc(=O)oc2cc(O)c(CN(C)CC(=O)O)cc12 | > 100 µM |
| Nc1ccc2[nH]c(C(=O)N3CC(CCl)c4c3cc(N)c3ccccc43)cc2c1 (stereo not given) | < 0.01 µM |
| COc1ccccc1Nc1nc(NNC(=O)Cc2ccccc2)nc(NNC(=O)c2ccncc2)n1 | > 10 µM |
| C=C1C(=O)OC2/C=C(\C=O)CC/C=C(\C)C(O)C[C@@H]12 (stereo not given in full) | 27.5 µM |
| Cc1cc(N/N=C/c2nc(-c3ccc(Cl)cc3)oc2C)c2cc(Cl)ccc2n1 | 3.33 µM |

Record TGI for all entries; do not skip any.
1. COc1cc2c(/C=C3/C(=O)N(c4ccccc4)c4ccccc43)c(Cl)[nH]c2cc1C
2. O=S1(=O)c2ccccc2NC(=S)CC1c1ccccc1 (stereo not given)
3. NCCCCNCCCNC(=O)c1nc(-c2csc(CCN)n2)sc1Cl
4. CSc1cc(N)ccc1N=Nc1ccc(S(N)(=O)=O)cc1
5. Cn1cnc2c(sc3nc4ccccc4n32)c1=N
6. Nc1nc(CCC(=O)Nc2cccc(C(F)(F)F)c2)cc(-c2ccc3ccccc3c2)n1
7. C/C(O)=C/c1nc2ccc([N+](=O)[O-])cc2nc1/C=C(/C)O
8. COc1ccc(Cn2c(Cl)c(/C=C3/C(=O)Nc4ccccc43)c3cc(OC)c(C)cc32)cc1

Response:
["6.55 µM", "> 100 µM", "> 100 µM", "> 100 µM", "> 100 µM", "> 100 µM", "> 100 µM", "> 100 µM"]

* * *

Test system: NCI-H23 lung
Experiment: NCI tumour cell line growth inhibition, 48 h
readout_kind: TGI

| compound | system_tested | TGI |
| --- | --- | --- |
| CCN1CSC(=S)N(CC)C1 | NCI-H23 lung | > 100 µM |
| Cc1ccc(SC(=O)N2C(=S)NC(=NC3CCCCC3)C23CCCCC3)cc1 | NCI-H23 lung | > 100 µM |

In the following, a different compound is considered.
Request: Field request: TGI | item: S=C(S)NCC1CCC(CNC(=S)S)CC1 (stereo not drawn)
Response: > 100 µM

* * *

Would you mind telling me the reported TGI of each entry?
Test system: HL-60(TB) leukemia
Assay: NCI tumour cell line growth inhibition, 48 h

| compound | system_tested | readout_kind | assay_value |
| --- | --- | --- | --- |
| CC(C)(C)OC[C@H](O)CC#N | HL-60(TB) leukemia | TGI | > 100 µM |
| COc1ccccc1Nc1nc(NNC(=O)Cc2ccccc2)nc(NNC(=O)c2ccncc2)n1 | HL-60(TB) leukemia | TGI | > 10 µM |

For the 4 compounds below, give their TGI values.
1. Cc1nn(-c2ccccc2)c(-c2ccccc2[N+](=O)[O-])c1CC#N
2. CCOC(=O)CC1NC(=O)CS1 (stereo not drawn)
3. COc1ccc2nc3cc(Cl)ccc3c(NCCNCCCNC(=O)c3cc(-c4ccccc4)nc4ccccc34)c2c1
4. Cc1nc(C(N)=S)sc1C(=O)C/C(=N/N)C(=O)Nc1cccc(Cl)c1C

Response:
1. > 100 µM
2. > 100 µM
3. > 100 µM
4. > 100 µM

Could you tell me TGI for each of these compounds? They are listed below.
1. COc1cc(/C=N/Nc2nnc3c4ccccc4c4ncccc4c3n2)cc(OC)c1OC
2. CCOC(=O)C(=O)Nc1c(C(C)C)cccc1C(C)C

Response:
["> 10 µM", "> 100 µM"]

* * *

Tested on: A498 renal
Experiment: NCI tumour cell line growth inhibition, 48 h
Hi there, I'd appreciate the recorded TGI for every entry that follows.

Some solved cases for reference:
| compound | TGI |
| --- | --- |
| CCN(CC)C1CC(n2cc(C)c(=O)[nH]c2=O)OC1CO (centres undefined) | > 100 µM |
| CCOC(=O)COS(=O)(=O)C(F)(F)F | > 100 µM |
| Cn1c(=O)c2c(ncn2CN2CCN(Cn3cnc4c3c(=O)n(C)c(=O)n4C)CC2)n(C)c1=O | > 100 µM |

Please turn your attention to the following entry.
Request: Fill in the blank: the reported TGI of Cc1ccc(S(=O)(=O)N=Nc2c(O)[nH]c3c(Cl)cc(Cl)cc23)cc1 is ____.
Response: > 100 µM

* * *

For each of the compounds below, state its TGI.
System: OVCAR-4 ovarian
Experiment: NCI tumour cell line growth inhibition, 48 h

Reference set, count: 6
| compound | TGI |
| --- | --- |
| CC(=Nc1ccncc1)C(C)=Nc1ccncc1 | 27.4 µM |
| Oc1ccc(CCc2cc(O)cc(O)c2)cc1 | > 100 µM |
| COc1ccc(-c2cn[nH]c2-c2cc(OC)c3c(c2)OCCO3)cc1 | > 100 µM |
| Clc1ccc(N=c2oc3ccccc3cc2-c2nc3ccccc3[nH]2)c(Cl)c1 | > 100 µM |
| O=c1[nH]c(=O)n(C2OC3COC2C3O)cc1F (configuration not stated) | > 100 µM |
| COc1cc(S(=O)(=O)Nc2ccc(C3=NNC(c4ccccc4)C3)cc2)ccc1F (configuration not stated) | > 100 µM |

Provide reported TGI for each item, in the same order as listed.
1. NC(=O)c1ccc(C2C3=C(CCCC3=O)OC3=C2C(=O)c2ccccc2C3=O)cc1 (configuration not stated)
2. CCCCCCN(CCCCCC)CC(O)c1ccc2c3c(cccc13)CC2 (configuration not stated)
3. NNC(=S)N1CCN(C(=S)NN)CC1
4. O=C1C2Cc3ccccc3CN2C(=O)N1CCN1CCCC1 (configuration not stated)

Response:
1: 0.95 µM; 2: 36.8 µM; 3: > 100 µM; 4: > 100 µM

Dear colleague, could you please provide TGI for the compounds listed below?
1. Cc1nn(-c2ccccc2)c(-c2ccccc2[N+](=O)[O-])c1CC#N
2. O=C1C(Br)=C(c2ccccc2)S(=O)c2ccccc21 (configuration not stated)

Response:
1: > 100 µM; 2: 5.86 µM
